# Test system: HuO9 (Osteosarcoma)
# test-name: Bliss excess, mean over the matrix (fraction); higher = more synergy
experimental-endpoint: Bliss excess
I'd appreciate a reply containing only the number, no unit.

Use the examples below as a reference point.
compound | target-or-test-system | result-value
Cc1c2c(nn1C)CSCc1cc(n(C)n1)CSc1cc(c3ccccc3c1)OCCCc1c(C(=O)O)n(C)c3c-2c(Cl)ccc13 [AZD5991] + CC1(C)CCC(CN2CCN(c3ccc(C(=O)NS(=O)(=O)c4ccc(NCC5CCOCC5)c([N+](=O)[O-])c4)c(Oc4cnc5[nH]ccc5c4)c3)CC2)=C(c2ccc(Cl)cc2)C1 [Venetoclax] (first compound max 1 µM, 7x7, partner max 1 µM) | HuO9 (Osteosarcoma) | 0.0182
CN(CCO)CC[C@H](CSc1ccccc1)Nc1ccc(S(=O)(=O)NC(=O)c2ccc(N3CCC([C@@H](O)c4ccccc4-c4ccc(Cl)cc4)CC3)cc2)cc1S(=O)(=O)C(F)(F)F [AZD4320] + C1CN(CCC1(C(=O)N[C@@H](CCO)C2=CC=C(C=C2)Cl)N)C3=NC=NC4=C3C=CN4 [Capivasertib] (first compound max 1 µM, 7x7, partner max 3 µM) | HuO9 (Osteosarcoma) | 0.0355

Next compound, Bliss excess to be filled in.
Problem: Please report the measured Bliss excess for CN(C)CCCOc1ccc(-c2ccc3ncc4c(c3c2)n(C2CCOCC2)c(=O)n4C)cn1 [AZD0156] + C[C@@H]1COCCN1C2=NC(=NC(=C2)C3(CC3)[S@](=N)(=O)C)C4=C5C=CNC5=NC=C4 [AZD6738] (first compound max 1 µM, 7x7, partner max 10 µM)
Result: 0.0236

----------
# Tested on: CS1 (Chondrosarcoma)
# test-name: combination Emax (second highest fraction inhibited in the dose matrix, 72 h); higher = more inhibition; extreme values may be limits of the assay
experimental-endpoint: combination Emax
I'd appreciate a reply containing only the number, no unit.

compound | target-or-test-system | result-value
COc1nnc2ccc(N3CCC(c4ccc(OCCN5CCN(C)C(=O)[C@H]5C)cc4)CC3)nn12 [AZD5153] + Cn1cnc2c(F)c(Nc3ccc(Br)cc3Cl)c(C(=O)NOCCO)cc21 [Selumetinib] (first compound max 1 µM, 7x7, partner max 10 µM) | CS1 (Chondrosarcoma) | 0.469

Next compound, combination Emax to be filled in.
Problem: Please report the measured combination Emax for Cc1cc2ncnn2cc1Nc1ncc2c(n1)n(C1CCOCC1)c(=O)n2C [AZD7648] + C=CCn1c(=O)c2cnc(Nc3ccc(N4CCN(C)CC4)cc3)nc2n1-c1cccc(C(C)(C)O)n1 [AZD1775] (first compound max 10 µM, partner max 1 µM)
Result: 0.541

----------
# Tested on: U-118-MG (Low Grade Glioma)
# test-name: Bliss excess, mean over the matrix (fraction); higher = more synergy
experimental-endpoint: Bliss excess
I'd appreciate a reply containing only the number, no unit.

Use the examples below as a reference point.
compound | target-or-test-system | Bliss excess
COc1nnc2ccc(N3CCC(c4ccc(OCCN5CCN(C)C(=O)[C@H]5C)cc4)CC3)nn12 [AZD5153] + CCN(CCO)CCCOc1ccc2c(Nc3cc(CC(=O)Nc4cccc(F)c4)[nH]n3)ncnc2c1 [AZD2811] (first compound max 1 µM, 7x7, partner max 1 µM) | U-118-MG (Low Grade Glioma) | -0.0317
Cc1cc2ncnn2cc1Nc1ncc2c(n1)n(C1CCOCC1)c(=O)n2C [AZD7648] + O=C(c1cc(Cc2n[nH]c(=O)c3ccccc23)ccc1F)N1CCN(C(=O)C2CC2)CC1 [Olaparib] (first compound max 10 µM, 7x7, partner max 10 µM) | U-118-MG (Low Grade Glioma) | -0.0441
CN(C)CCCOc1ccc(-c2ccc3ncc4c(c3c2)n(C2CCOCC2)c(=O)n4C)cn1 [AZD0156] + CCN(CCO)CCCOc1ccc2c(Nc3cc(CC(=O)Nc4cccc(F)c4)[nH]n3)ncnc2c1 [AZD2811] (first compound max 1 µM, 7x7, partner max 1 µM) | U-118-MG (Low Grade Glioma) | 0.0017

Next compound, Bliss excess to be filled in.
Problem: Please report the measured Bliss excess for Cn1cnc2c(F)c(Nc3ccc(Br)cc3Cl)c(C(=O)NOCCO)cc21 [Selumetinib] + C=CCn1c(=O)c2cnc(Nc3ccc(N4CCN(C)CC4)cc3)nc2n1-c1cccc(C(C)(C)O)n1 [AZD1775] (first compound max 10 µM, partner max 1 µM)
Result: -0.061

----------
# System: Saos-2 (Osteosarcoma)
# test-name: combination Emax (second highest fraction inhibited in the dose matrix, 72 h); higher = more inhibition; extreme values may be limits of the assay
Outcome: 1 for combination Emax of at least 0.3; -1 for anything lower.

compound | label-class
Cc1c2c(nn1C)CSCc1cc(n(C)n1)CSc1cc(c3ccccc3c1)OCCCc1c(C(=O)O)n(C)c3c-2c(Cl)ccc13 [AZD5991] + Cn1cnc2c(F)c(Nc3ccc(Br)cc3Cl)c(C(=O)NOCCO)cc21 [Selumetinib] (first compound max 1 µM, 7x7, partner max 3 µM) | -1
Cc1c2c(nn1C)CSCc1cc(n(C)n1)CSc1cc(c3ccccc3c1)OCCCc1c(C(=O)O)n(C)c3c-2c(Cl)ccc13 [AZD5991] + Cc1cc2ncnn2cc1Nc1ncc2c(n1)n(C1CCOCC1)c(=O)n2C [AZD7648] (first compound max 1 µM, 7x7, partner max 10 µM) | -1
Cc1c2c(nn1C)CSCc1cc(n(C)n1)CSc1cc(c3ccccc3c1)OCCCc1c(C(=O)O)n(C)c3c-2c(Cl)ccc13 [AZD5991] + CS(=O)(=O)CCNCc1ccc(-c2ccc3ncnc(Nc4ccc(OCc5cccc(F)c5)c(Cl)c4)c3c2)o1 [Lapatinib] (first compound max 1 µM, 7x7, partner max 10 µM) | 1
CCc1c2c(nc3ccc(O)cc13)-c1cc3c(c(=O)n1C2)COC(=O)[C@]3(O)CC [SN-38] + CN(C)CCCOc1ccc(-c2ccc3ncc4c(c3c2)n(C2CCOCC2)c(=O)n4C)cn1 [AZD0156] (first compound max 0.3 µM, 7x7, partner max 1 µM) | 1

Problem: # check: combination Emax of Cc1cc2ncnn2cc1Nc1ncc2c(n1)n(C1CCOCC1)c(=O)n2C [AZD7648] + C[C@@H]1COCCN1C2=NC(=NC(=C2)C3(CC3)[S@](=N)(=O)C)C4=C5C=CNC5=NC=C4 [AZD6738] (first compound max 10 µM, 7x7, partner max 10 µM) is greater than or equal to 0.3
Result: 1

Problem: # check: combination Emax of O=C(c1cc(Cc2n[nH]c(=O)c3ccccc23)ccc1F)N1CCN(C(=O)C2CC2)CC1 [Olaparib] + CC1(C)CCC(CN2CCN(c3ccc(C(=O)NS(=O)(=O)c4ccc(NCC5CCOCC5)c([N+](=O)[O-])c4)c(Oc4cnc5[nH]ccc5c4)c3)CC2)=C(c2ccc(Cl)cc2)C1 [Venetoclax] (first compound max 10 µM, 7x7, partner max 1 µM) is greater than or equal to 0.3
Result: -1

----------
# Tested on: MCF7 (Breast Carcinoma)
# test-name: combination Emax (second highest fraction inhibited in the dose matrix, 72 h); higher = more inhibition; extreme values may be limits of the assay
experimental-endpoint: combination Emax
I'd appreciate a reply containing only the number, no unit.

Use the examples below as a reference point.
compound | combination Emax
NC1(C(=O)N[C@@H](CCO)c2ccc(Cl)cc2)CCN(c2ncnc3[nH]ccc23)CC1 [Capivasertib] + CC(=O)c1c(C)c2cnc(Nc3ccc(N4CCNCC4)cn3)nc2n(C2CCCC2)c1=O [Palbociclib] (first compound max 10 µM, 7x7, partner max 10 µM) | 0.676
CCc1c2c(nc3ccc(O)cc13)-c1cc3c(c(=O)n1C2)COC(=O)[C@]3(O)CC [SN-38] + CN(C)CCCOc1ccc(-c2ccc3ncc4c(c3c2)n(C2CCOCC2)c(=O)n4C)cn1 [AZD0156] (first compound max 0.3 µM, 7x7, partner max 1 µM) | 0.686

Next compound, combination Emax to be filled in.
Problem: Please report the measured combination Emax for CN(CCO)CC[C@H](CSc1ccccc1)Nc1ccc(S(=O)(=O)NC(=O)c2ccc(N3CCC([C@@H](O)c4ccccc4-c4ccc(Cl)cc4)CC3)cc2)cc1S(=O)(=O)C(F)(F)F [AZD4320] + Cc1cc2ncnn2cc1Nc1ncc2c(n1)n(C1CCOCC1)c(=O)n2C [AZD7648] (first compound max 1 µM, 7x7, partner max 10 µM)
Result: 0.367

----------
# Bliss excess values compiled below
# System: FU-OV-1 (Ovarian Carcinoma)
# test-name: Bliss excess, mean over the matrix (fraction); higher = more synergy
I'd appreciate a reply containing only the number, no unit.

compound | target-or-test-system | Bliss excess
C[C@@H](c1ccc2nccn2c1)n1nnc2ncc(-c3cnn(C)c3)nc21 [Savolitinib] + CC1(C)CCC(CN2CCN(c3ccc(C(=O)NS(=O)(=O)c4ccc(NCC5CCOCC5)c([N+](=O)[O-])c4)c(Oc4cnc5[nH]ccc5c4)c3)CC2)=C(c2ccc(Cl)cc2)C1 [Venetoclax] (first compound max 1 µM, 7x7, partner max 1 µM) | FU-OV-1 (Ovarian Carcinoma) | -0.0389

Problem: Please report the measured Bliss excess for Cn1cnc2c(F)c(Nc3ccc(Br)cc3Cl)c(C(=O)NOCCO)cc21 [Selumetinib] + C[C@@H]1COCCN1C2=NC(=NC(=C2)C3(CC3)[S@](=N)(=O)C)C4=C5C=CNC5=NC=C4 [AZD6738] (first compound max 10 µM, 7x7, partner max 10 µM)
Result: 0.0621
